This collection of values is drawn from ChEMBL document CHEMBL2040753.

tested_target: Aldo-keto reductase family 1 member C2 (Homo sapiens, UniProt P52895)
Sequence (P52895 whole entry): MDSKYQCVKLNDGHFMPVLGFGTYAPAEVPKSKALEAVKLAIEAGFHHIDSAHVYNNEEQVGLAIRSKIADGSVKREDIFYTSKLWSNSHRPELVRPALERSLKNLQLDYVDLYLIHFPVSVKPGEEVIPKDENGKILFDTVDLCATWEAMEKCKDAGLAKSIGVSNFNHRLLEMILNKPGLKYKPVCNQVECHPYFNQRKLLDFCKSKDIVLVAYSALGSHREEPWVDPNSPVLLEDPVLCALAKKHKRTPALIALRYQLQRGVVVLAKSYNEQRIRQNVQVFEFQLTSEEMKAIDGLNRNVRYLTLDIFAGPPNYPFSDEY
experiment_summary: Inhibition of recombinant AKR1C2 assessed as NADP+ dependent oxidation of S-tetralol by fluorescence assay
readout_name: IC50 (nM)
Please give a number only; it is taken to be in nM.

Consider the reported IC50 for these compounds:
COc1ccc(C(=O)O)c(Nc2ccc([N+](=O)[O-])cc2)c1 : 190
COc1ccc(Nc2ccc(C(C)=O)cc2C(=O)O)cc1 : 910
CC(=O)c1ccc(Nc2ccccc2[N+](=O)[O-])c(C(=O)O)c1 : 3970
COc1cccc(Nc2ccc(C(=O)O)cc2)c1 : 84400

Now consider a different compound.
## Task I have this compound here, `CC(=O)c1cccc(Nc2ccccc2C(=O)O)c1` , and I need its recorded IC50.
## Result 1550
